In this section we review reported growth inhibition values for a set of compounds.
assay: NCI Yeast Anticancer Drug Screen. Data for the mec2-1 strain (AID 157); details: S. cerevisiae mec2-1 strain, at 50.0 µM, stronger effect = higher value
About 79,000 compounds went through this panel and 15% of them were active in at least one assay; those are over-represented in the sample as a whole.
quantity: growth inhibition (%)

INSERT INTO assay_data (smiles_text, quantity, experimental_result) VALUES
  ('O=c1[nH]cc(F)c(=O)n1-c1ccco1', 'growth inhibition', 67.5),
  ('CC(C)SCCC#N', 'growth inhibition', -8.55),
  ('CC(=O)Oc1ccc(C(C)(C)C)cc1', 'growth inhibition', -7.25),
  ('O=C(Nc1cc(S(=O)(=O)O)cc2cc(S(=O)(=O)O)c(N=Nc3cc(Nc4nc(Cl)nc(Nc5ccc(S(=O)(=O)O)cc5)n4)ccc3S(=O)(=O)O)c(O)c12)c1ccccc1', 'growth inhibition', -10.1),
  ('C[CH2][Sn]([CH2]C)([n]1c2ccccc2c2c(C)c3cnccc3c(C)c21)[n]1c2ccccc2c2c(C)c3cnccc3c(C)c21', 'growth inhibition', 14.7);
